Each entry below carries its recorded Tmax.
- assay-info: Pharmacokinetics of JHG components in pulmonary fibrosis (PF) model rats after intragastric administration of JHGs (plasma, Orbitrap Fusion MS)
- Assay type: in vivo, Sprague Dawley (SD) rats
- reported-conditions: male, Sprague Dawley, rat, plasma, po, 5.7 g/kg/day; PF model rats, JHGs low dose 5.70 g/kg/d; read-out: Tmax

{"columns": ["compound", "Tmax, min"],
 "data": [
  ["COc1ccc(C(C)=O)c(O)c1", 30],
  ["COc1ccc(-c2cc(=O)c3c(OC)c(OC)c(OC)c(OC)c3o2)cc1OC", 45],
  ["CC1=C2CC3C(CC(=O)C4CC(O)CCC43C)C2CCC12OC1CC(C)CNC1C2C (stereo not drawn)", 90]
]}

---

- assay-info: Pharmacokinetics of JHG components in control rats after intragastric administration of JHGs (plasma, Orbitrap Fusion MS)
- Format: in vivo, Sprague Dawley (SD) rats
- reported-conditions: male, Sprague Dawley, rat, plasma, po, 11.41 g/kg/day, JHGs medium dose 11.41 g/kg/d
Items are presented alongside their recorded AUC(0-inf).

{"columns": ["compound", "AUC(0-inf) (ng·h/mL)"],
 "data": [
  ["C[C@@H]1O[C@@H](O[C@@H]2[C@@H](O)[C@H](OCCc3ccc(O)c(O)c3)O[C@H](COC(=O)/C=C/c3ccc(O)c(O)c3)[C@H]2O)[C@H](O)[C@H](O)[C@H]1O [Isoacteoside]", 61.5],
  ["COc1ccc(C(C)=O)c(O)c1", 59.2],
  ["O=c1cc(-c2ccc(O)cc2)oc2cc(OC3OC(CO)C(O)C(O)C3O)cc(O)c12 (centres unmarked) [Apigenin-7-glucoside]", 28.9],
  ["COc1ccc(-c2cc(=O)c3c(OC)c(OC)c(OC)c(OC)c3o2)cc1OC", 22.3],
  ["CC1=C2CC3C(CC(=O)C4CC(O)CCC43C)C2CCC12OC1CC(C)CNC1C2C (centres unmarked)", 26.9]
]}

---

- assay-info: Pharmacokinetics of JHG components in control rats after intragastric administration of JHGs (plasma, Orbitrap Fusion MS)
- Format: in vivo, Sprague Dawley (SD) rats
- reported-conditions: male, Sprague Dawley, rat, plasma, po, 5.7 g/kg/day, JHGs low dose 5.70 g/kg/d, read-out: MRT(0-∞)
Measured MRT inf by item
observable: MRT inf (h)

{"columns": ["compound", "unit", "quantitative-readout"],
 "data": [
  ["COc1ccc(C(C)=O)c(O)c1", "h", 16.1],
  ["C[C@@H]1O[C@@H](O[C@@H]2[C@@H](O)[C@H](OCCc3ccc(O)c(O)c3)O[C@H](COC(=O)/C=C/c3ccc(O)c(O)c3)[C@H]2O)[C@H](O)[C@H](O)[C@H]1O [Isoacteoside]", "h", 9.81],
  ["O=c1cc(-c2ccc(O)cc2)oc2cc(OC3OC(CO)C(O)C(O)C3O)cc(O)c12 (stereo not shown) [Apigenin-7-glucoside]", "h", 20.1],
  ["CC1CCC2N(C1)CC1C3CC4C(CC(=O)C5CC(O)CCC54C)C3CCC1C2(C)O (stereo not shown)", "h", 10.2]
]}

---

- assay-info: Pharmacokinetics of JHG components in pulmonary fibrosis (PF) model rats after intragastric administration of JHGs (plasma, Orbitrap Fusion MS)
- Type: in vivo, Sprague Dawley (SD) rats
- reported-conditions: male, Sprague-Dawley, rat, plasma, po, 11.41 g/kg/day; PF model rats, JHGs medium dose 11.41 g/kg/d

{"columns": ["molecule", "unit", "AUC(0-inf)"],
 "data": [
  ["COc1ccc(-c2cc(=O)c3c(OC)c(OC)c(OC)c(OC)c3o2)cc1OC", "ng·h/mL", 43.1],
  ["COc1ccc(C(C)=O)c(O)c1", "ng·h/mL", 41.6],
  ["CC1=C2CC3C(CC(=O)C4CC(O)CCC43C)C2CCC12OC1CC(C)CNC1C2C (stereo not drawn)", "ng·h/mL", 26.8]
]}
